Species on record: Rattus norvegicus
Assay: Evaluated for intrinsic GH secretory potency as half maximal release of GH in the rat pituitary cell assay.
Type: functional
Conditions: Pituitary gland cell
pEC50: −log10 of the molar value.
Measured Endpoint: pEC50

1. CC1(C)C2CCC1(CS(=O)(=O)N1CCC3(CCc4ccccc43)CC1)C(NC(=O)C1CCCCN1)C2 (centres undefined) : < 5.00

Sample CC1(C)C2CCC1(CS(=O)(=O)N1CCC3(CCc4ccccc43)CC1)C(NC(=O)C1CCCN(CCO)C1)C2 (centres undefined) ; pEC50 observed: 6.52

For this compound ( CC(C)(N)CC(=O)NC1CC2CCC1(CS(=O)(=O)N1CCC3(CCc4ccccc43)CC1)C2(C)C (centres undefined) ), measured pEC50 is < 5.00

Field pEC50 (entry CC(C)(N)C(=O)NC1CC2CCC1(CS(=O)(=O)N1CCC3(CCc4ccccc43)CC1)C2(C)C (centres undefined) ) reads < 5.00
